B1: library; a variant is named by its letters at N, in order (parent)
chain: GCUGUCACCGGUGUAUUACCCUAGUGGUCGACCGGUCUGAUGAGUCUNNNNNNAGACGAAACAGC

Variants of: B1
Protocol Description: FACS-Seq fitted mean relative fluorescence mCherry/BFP without ligand (log10 relative fluorescence); ligand: hypoxanthine (xanthine aptamer); higher = higher reporter protein expression
Run Parameters: HEK293T, ligand present: no
For each of the variants below, state its FACS-Seq fitted mean (log10).
Give bare numbers.

Solved cases below.
In [3]: df
Out[3]:
   mutations                   result_type  value_observed
0     CGUCAA  FACS-Seq fitted mean (log10)            0.13
1     ACGAGU  FACS-Seq fitted mean (log10)          0.0593
2     AGGUAA  FACS-Seq fitted mean (log10)           0.414
3     UAUUGU  FACS-Seq fitted mean (log10)           0.106
4     CAAUCC  FACS-Seq fitted mean (log10)           0.406

Each variant below has a recorded value; state its FACS-Seq fitted mean (log10).
1. AACUGC
2. AUUGAC
3. GUGAGC
4. GGCAGC
5. UCAAGU
6. GGUGGA
7. AUGUAA

**Result**
0.74
0.697
0.0785
0.306
0.221
0.261
0.323

Each variant below has a recorded value; state its FACS-Seq fitted mean (log10).
1. GGGUUA
2. UGACUC

**Result**
[0.574, 0.621]

Each variant below has a recorded value; state its FACS-Seq fitted mean (log10).
1. AUCAGA
2. GUGUGC
3. AGAUUC
4. UAGUGG
5. AUUGGG
6. GCCCAG

**Result**
[-0.0827, 0.169, 0.691, 0.242, 0.0996, 0.0481]
